test system: ACVR2A; details: concentration: 1 μM, replicates: in singlicate; n = 1;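 note: KINOMEscan kinase panel screen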
PROPERTY_MEASURED: %Inh (%)
Quick note: give the figure in %, leave out the unit.

Answered cases to consult:
>>> df
                               smiles_input  reported
0  COc1ccc(CSc2nnc(-c3ccc4ncsc4c3)o2)cc1C(F)(F)F         0
1  COc1cccc(C2=C(Nc3cc(Cl)c(O)c(Cl)c3)C(=O)NC2=O)c1         0
2        CCCCc1nn2ncccc2c1-c1ccnc(NC2CC2)n1         0
3  Cc1ccc(NC(=O)Nc2ccccc2F)cc1-c1ccc(C(=O)Nc2ccncc2)cc1        21

Okay, next one:
Req: Report %Inh, nothing else, for this compound: O=C(Nc1n[nH]c2cc(-c3ccsc3)ccc12)C1CC1
Resp: 26

The origin of these recorded values is paper PMC5540273.
